# maps each entry to its selectivity ratio
test: Selectivity ratio of IC50 for human fibroblasts to IC50 for human melanoma cells
Type: ADME
experimental conditions: human fibroblasts and human melanoma cells, read-out: Ratio IC50
// return just the number, without any unit appended

Examples with answers:
1. CC(=O)Nc1ccc(C2N[C@H](C(=O)Nc3ccc(-c4ccccc4)cc3)CS2)cc1 (mixture of isomers) ... 6.3
2. CCCCCCCCC/C=C/CCCCCCCNC(=O)[C@@H]1CSC(c2ccccc2)N1 (mixture of isomers) ... 2.1
3. CCCCCCCCCCCCCCCCNC(=O)[C@@H]1CSC(c2ccc(OC)cc2)N1 (mixture of isomers) ... 5.1

Query string: Using the record for CCCCCCCCCCCCCCCCNC(=O)[C@@H]1CSC(c2ccccc2NC(C)=O)N1 (mixture of isomers) , state its measured selectivity ratio.
Result string: 3.9

Query string: Using the record for CCCCCCCCC/C=C\CCCCCCCNC(=O)[C@@H]1CSC(c2cc(OC)c(OC)c(OC)c2)N1 (mixture of isomers) , state its measured selectivity ratio.
Result string: 1.7

Query string: Using the record for CNC(=O)c1cc(Oc2ccc(NC(=O)Nc3ccc(Cl)c(C(F)(F)F)c3)cc2)ccn1 [SORAFENIB] , state its measured selectivity ratio.
Result string: 3

Query string: Using the record for CCCCCCCCCCCCCCCCNC(=O)[C@@H]1CSC(c2ccc(NC(C)=O)cc2)N1C(C)=O (mixture of isomers) , state its measured selectivity ratio.
Result string: 3.6

Values were extracted from ChEMBL document CHEMBL1159121.
